Entries annotated with measured inhibition
Species on record: Rattus norvegicus
procedure summary: Inhibition of gastric H+/K(+)-ATPase activity in Sprague-Dawley rat microsomal vesicles at 10 umol
Format: microsomes
test settings: Stomach, Microsome
quantity measured: inhibition (%)

>>> df
                            compound_string  quantity_measured  units_label  result_number
0            O=C(O)[C@H]1CCC(=O)N1Cc1ccccc1         inhibition            %             55
1  O=C(O)[C@@H]1CCC(=O)N1Cc1ccccc1Cc1ccccc1         inhibition            %             71
2  CC(C)(C)[C@H]1OC(=O)[C@@]2([C@@H](O)c3ccccc3)CCC(=O)N12         inhibition            %             44
3          O=C(O)[C@@H]1CCCN1C(=O)Cc1ccccc1         inhibition            %             92
4                CCOC(=O)N1CCC[C@H]1C(=O)OC         inhibition            %             68
5           O=C(N[C@H](CO)C(=O)O)OCc1ccccc1         inhibition            %             46

---

Species on record: Rattus norvegicus
procedure summary: Inhibition of gastric H+/K(+)-ATPase activity in Sprague-Dawley rat microsomal vesicles at 10 umol
Format: microsomes
test settings: Stomach, Microsome
quantity measured: inhibition (%)

>>> print(df.to_string())
                                    compound  quantity_measured  units_label  result_number
 0     O=C1CC[C@@H](C(=O)O)N1 [PIDOLIC ACID]         inhibition            %             67
 1   CC(C)(C)OC(=O)[C@@H]1CCC(=O)N1Cc1ccccc1         inhibition            %             92
 2          COC(=O)[C@@H]1CCCN1C(=O)c1ccccc1         inhibition            %             91
 3           Cc1ccccc1CN1C(=O)CC[C@H]1C(=O)O         inhibition            %             46
 4  CC(C)(C)[C@H]1OC(=O)[C@@]2(C3(O)CCCCC3)CCC(=O)N12         inhibition            %             55
 5  CC(C)(C)OC(=O)[C@@H]1CCC(=O)N1Cc1ccccc1Cl         inhibition            %             88
 6      COC(=O)[C@@H]1CCC(=O)N1Cc1ccc(Cl)cc1         inhibition            %             46
 7  O=C(N[C@@H](COCc1ccccc1)C(=O)O)OCc1ccccc1         inhibition            %             59
 8  CCOC(=O)[C@@H](NC(=O)OCc1ccccc1)C(O)/C=C/c1ccccc1 (stereo partly drawn)         inhibition            %             65
 9  CCOC(=O)[C@@H](NC(=O)OCc1ccccc1)C(O)C#C[Si](C)(C)C (stereo partly drawn)         inhibition            %             10
10           O=C(O)[C@@H]1CCC(=O)N1Cc1ccccc1         inhibition            %             44
11           CC(C)(C)OC(=O)N[C@@H](CO)C(=O)O         inhibition            %             34
12         O=C(O)[C@@H]1CCC(=O)N1Cc1ccccc1Cl         inhibition            %             32
13      O=C(O)[C@@H]1CCCN1C(=O)/C=C/c1ccccc1         inhibition            %             58
14     COC(=O)[C@@H]1CCCN1C(=O)Cc1ccc(OC)cc1         inhibition            %             52
15          COc1ccccc1CN1C(=O)CC[C@H]1C(=O)O         inhibition            %             49
16     O=C(O)[C@@H]1CCC(=O)N1Cc1cccc2ccccc12         inhibition            %             53
17     CC(C)(C)[C@H]1OC(=O)[C@@H]2CCC(=O)N21         inhibition            %             92
18  O=C1N[C@H](C(=O)O)[C@H](/C=C/c2ccccc2)O1 (relative stereo)         inhibition            %             59
19     COC(=O)[C@@H]1CCCN1C(=O)/C=C/c1ccccc1         inhibition            %             62
20   Cc1ccccc1CN1C(=O)CC[C@H]1C(=O)OC(C)(C)C         inhibition            %             68
21  Cc1ccc(CN2C(=O)CC[C@H]2C(=O)OC(C)(C)C)cc1         inhibition            %             79
22        CC(C)N1C(=O)CC[C@H]1C(=O)OC(C)(C)C         inhibition            %             52
